experiment: Serum silibinin concentration in SD rats by HPLC
Assay type: in vivo, rat
testContext: male, Sprague-Dawley, rat, serum, 100 mg/kg body weight/day, 1440 minutes after administration

- compound: "COc1cc(C2Oc3cc(C4Oc5cc(O)cc(O)c5C(=O)C4O)ccc3OC2CO)ccc1O (stereo not shown)"
  concentration at 1440 minutes / ng/mL: 0
